System: XIP peptide (Xip251-270) binding
PROTOCOL DESCRIPTION: small-molecule binders of XIP peptide, primary screen, biochemical, small-molecule microarray, fluorescence 635/667 nm, 0.1 µg/mL protein (AID 1182)
STUDY CONDITIONS: fluorescent protein binding, 635 nm, higher = more signal, called active from +8 up or from −8 down
Reported composite z-score values for the following compounds.
No unit in the answer, please; the number alone is enough.

O=C1O[C@@H](c2ccccc2)[C@@H](c2ccccc2)N2[C@@H](c3ccc(OCCO)cc3)[C@]3(C(=O)Nc4ccccc43)[C@@H](C(=O)N3CCN(c4ncccn4)CC3)[C@H]12: 0.0629
Cc1ccc(F)cc1S(=O)(=O)N[C@@H]1CCN(Cc2ccc(CC(C)C)cc2)C1: -0.112
CC(C)C[C@@H]1NC(=O)[C@H]2C[C@@H](C(=O)O)[C@@H](c3ccc(O)cc3)N2C1=O: 0.0473

Now, please, on to the next compound.
Exam item: Field: composite z-score (XIP peptide (Xip251-270) binding). Entry: `C/C=C\[C@@H](NCc1ccccc1Br)[C@@H](O)Cc1ccccc1`
Marked response: -0.0971
